For each of the compounds below, state its inhibition at 0.05 µM.
- assayed_target: CDK2/Cyclin A (Homo sapiens, UniProt P24941)
- run_description: Inhibition of CDK2/Cyclin A Retinoblastoma Kinase Activity
- Format: biochemical
- condition_summary: read-out: % inhibition of CDK2 (@ 0.05 μM), compound at 0.05 μM
One number for each entry, in %.

Nc1nc(NC2CCN(S(=O)(=O)CCCNc3nnn[nH]3)CC2)sc1C(=O)c1c(F)cccc1F | 24

Can you give me inhibition at 0.05 µM for all of these, one by one?
1. Nc1nc(NC2CCN(S(=O)(=O)CCCN3CCSCC3)CC2)sc1C(=O)c1c(F)cccc1F
2. CC(C)OCCCNCCCS(=O)(=O)N1CCC(Nc2nc(N)c(C(=O)c3c(F)cccc3F)s2)CC1
3. Nc1nc(NC2CCN(S(=O)(=O)CCCN3Cc4ccccc4C3)CC2)sc1C(=O)c1c(F)cccc1F
4. Cc1nnc(CCNCCCS(=O)(=O)N2CCC(Nc3nc(N)c(C(=O)c4c(F)cccc4F)s3)CC2)[nH]1
5. COC(=O)CCCNCCCS(=O)(=O)N1CCC(Nc2nc(N)c(C(=O)c3c(F)cccc3F)s2)CC1

Response:
1: 86; 2: 84; 3: 87; 4: 84; 5: 82

Can you give me inhibition at 0.05 µM for all of these, one by one?
1. Nc1nc(NC2CCN(S(=O)(=O)CCCN[C@@H]3CCCC[C@@H]3CO)CC2)sc1C(=O)c1c(F)cccc1F
2. Cc1nnc(CN(C)CCCS(=O)(=O)N2CCC(Nc3nc(N)c(C(=O)c4c(F)cccc4F)s3)CC2)o1
3. CCN(CCCCO)CCCS(=O)(=O)N1CCC(Nc2nc(N)c(C(=O)c3c(F)cccc3F)s2)CC1

Response:
[85, 73, 79]

Can you give me inhibition at 0.05 µM for all of these, one by one?
1. CCCNCCCS(=O)(=O)N1CCC(Nc2nc(N)c(C(=O)c3c(F)cccc3F)s2)CC1
2. N#CCCNCCCS(=O)(=O)N1CCC(Nc2nc(N)c(C(=O)c3c(F)cccc3F)s2)CC1
3. Nc1nc(NC2CCN(S(=O)(=O)CCCNCCc3ccccn3)CC2)sc1C(=O)c1c(F)cccc1F
4. Nc1nc(NC2CCN(S(=O)(=O)CCCN3CCNC(=O)C3)CC2)sc1C(=O)c1c(F)cccc1F
5. CC(NCCCS(=O)(=O)N1CCC(Nc2nc(N)c(C(=O)c3c(F)cccc3F)s2)CC1)c1ccccc1 (stereo not drawn)
6. CN(C)C1CCN(CCCS(=O)(=O)N2CCC(Nc3nc(N)c(C(=O)c4c(F)cccc4F)s3)CC2)CC1

Response:
[83, 81, 81, 72, 91, 67]
